Ref: patent US20230240966

# SUBJECT OF TEST: T1, Suc-AAPM-pNA
# T1 chain: AAPM
# CONDITION DESCRIPTION: scale: relative to the substrate with the highest activity
MEASURED METRIC: relative activity (initial increase in OD405)
Number, no unit, nothing else.

// relative activity (initial increase in OD405) lookup, protein = Subtilisin Carlsberg from Bacillus licheniformis (protein) AQTVPYGIPLIKADKVQAQGFKGANVKVAVLDTGIQASHPDLNVVGGASFVAGEAYNTDGNGHGTHVAGTVAALDNTTGVLGVAPSVSLYAVKVLNSSGSGSYSGIVSGIEWATTNGMDVINMSLGGASGSTAMKQAVDNAYARGVVVVAAAGNSGSSGNTNTIGYPAKYDSVIAVGAVDSNSNRASFSSVGAELEVMAPGAGVYSTYPTNTYATLNGTSMASPHVAGAAALILSKHPNLSASQVRNRLSSTATYLGSSFYYGKGLINVEAAAQ , result: 0.282
